- measurement target: T1, human CD112R on GS-J2C/CD112R effector cells (human, UniProt Q6DKI7 1-326)
- T1 sequence (looked up): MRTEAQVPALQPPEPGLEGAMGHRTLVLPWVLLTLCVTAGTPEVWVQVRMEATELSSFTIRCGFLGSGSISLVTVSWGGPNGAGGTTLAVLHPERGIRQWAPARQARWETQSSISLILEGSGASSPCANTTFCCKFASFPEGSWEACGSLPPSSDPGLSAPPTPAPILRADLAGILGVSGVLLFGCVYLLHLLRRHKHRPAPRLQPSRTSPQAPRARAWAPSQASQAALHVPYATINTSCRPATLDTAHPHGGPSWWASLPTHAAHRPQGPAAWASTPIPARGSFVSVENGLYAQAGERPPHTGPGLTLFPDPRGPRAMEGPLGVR
- assay method text: cell-based or functional assay
metric: EC50 (Blocking effects of the antibodies, reporter gene method)
Report as: number unit

C4 (antibody, human IgG1, kappa, V domains shown) VH: EVQLQQSGPELVKPGASVKISCKASGYTFTDYFMNWVKQSHGKSLEWIGDIIPNNDSPNYNQKFKGKATLTVDKSSNTAYMELRSLTSEDSAVYYCASGYFDVWGTGTTVTVSS VL: DIVMTQSPSSLSVSAGEKVTMSCKSSQSLLNSGNQKNFLAWYQQKPGQPPKLLIYGTSTRESGVPDRFTGSGSGTDFTLTISSVQAEDLAVYYCQNDHSYPWTFGGGTKLEIKR : 0.024 µg/mL

**Query** So what's the measured EC50 (Blocking effects of the antibodies, reporter gene method) for this one? C12 (antibody, human IgG1, kappa, V domains shown) VH: EVQLVASGGGLVKPGGSLKLSCAASGFTFSDYYMYWVRQTPEKRLEWVATISDGGGYTYYPDSVKGRFTISRDNDRNSLYLQMSSLKSEDTAMYYCGREDLWGQGTSVTVSS VL: DIQMTQSPSSLSASLGERVSLTCRASQDIGSSLNWLQQEPDGTVKRLIYATSRLDSGVPKRFSGSRSGSDYSLTISSLESEDFVDYYCLQYASFPYTFGGGTKLEIKR
**Result** 0.024 µg/mL

**Query** Here is the next binder: C62 (antibody, human IgG1, kappa, V domains shown) VH: EVMLVESGGGLVKPGGSLKLSCAASGFSFSSYSMSWVRQTPEKRLECVATIGGVGGNTYYPDSVKGRFSISRDNAKNTLYLQMSSLRSEDTALYYCARHEDYYYYAMDYWGQGTSVTVSS VL: QIVLTQSPAIMSASPGEKVTMTCSANSTVSYIYWYQQKPGSSPRLLIYDTSNLASGVPVRFSGSGSGTSYYLTISRMEAEDAATYYCQQWSSFPFTFGSGTKLEIKR
**Result** 0.032 µg/mL

Ref: patent EP4644419A1
